tested on: MCF10A; test: 5+ nucleoli phenotype percent effect (relative to siNT 0% and siKIF11 100%); higher = more cells with five or more nucleoli; details: 20 nM; 72 h
observation_type: 5+ nucleoli phenotype percent effect
Express your answer as a number followed by its unit.

CCCCUGGGCCGGCCUUGG [hsa-miR-4292]; 31.4%
UGAUUGUCUUCAUAUCUAGAAC [hsa-miR-4782-3p]; -13.9%
UCUGUCAUUUCUUUAGGCCAAUA [hsa-miR-215-3p]; -6.58%

Prompt line: Entry UCUGGAUUGAAGAGACGACCCA [hsa-miR-6839-5p] : reported 5+ nucleoli phenotype percent effect = ?
Response line: -12.4%

Prompt line: Another sequence: ACAGUAGUCUGCACAUUGGUUA [hsa-miR-199b-3p]
Response line: 36.1%

---

Listed here: items and their measured percent viability.
test system: MCF10A; test: percent viability (nuclei count relative to siNT); higher = more viable cells; conditions: 20 nM; 72 h
Answer format: numeric, % implied, no suffix.

See these solved cases before continuing.
CCCUUCCCUCACUCUUCUCUCAG [hsa-miR-6734-3p]; 44.4
UGAUAUGUUUGAUAUUGGGUU [hsa-miR-190b]; 36
AAGCUCAGGUUUGAGAACUGCUGA [hsa-miR-6854-5p]; 57.3
GUGCAUGGCUGUAUAUAUAACA [hsa-miR-5011-3p]; 56.9
AAGUUGGCUGCAGUUAAGGUGG [hsa-miR-4715-5p]; 22.1

Prompt line: // returns reported percent viability for input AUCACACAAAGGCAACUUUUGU [hsa-miR-377-3p]
Response line: 129

Prompt line: // same read-out, input: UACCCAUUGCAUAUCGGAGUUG [hsa-miR-660-5p]
Response line: 30

Prompt line: Another sequence to check: AUGGUCACCUCCGGGACU [hsa-miR-5587-5p]
Response line: 60.6

---

test system: MCF10A; test: one-nucleolus phenotype percent effect (relative to siNT 0% and siNOL11 100%); higher = more cells with one nucleolus (ribosome biogenesis inhibition); conditions: 20 nM; 72 h
observation_type: one-nucleolus phenotype percent effect (%)
Kindly answer with a numeric value in %, unit omitted.

Prompt line: // returns reported one-nucleolus phenotype percent effect for input UUGCACUUGUCUCAGUGA [hsa-miR-4325]
Response line: 70.8

Prompt line: // same read-out, input: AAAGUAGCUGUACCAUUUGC [hsa-miR-562]
Response line: -28.9

Prompt line: Follow-up entry: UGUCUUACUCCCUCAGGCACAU [hsa-miR-550a-3p]
Response line: 15.4

Prompt line: Repeat with AAAAGUAAUUGCGGGUUUUGCC [hsa-miR-548as-5p]
Response line: -24.9

Prompt line: One more sequence: GAAGGCAGCAGUGCUCCCCUGU [hsa-miR-3714]
Response line: 19.5

Prompt line: Subsequent entry: CAACCUCGAGGAUCUCCCCAGC [hsa-miR-3150b-5p]
Response line: -5.6

Prompt line: Entry to check: CAAAGGCCACAUUCUCCUGUGCAC [hsa-miR-6768-3p]
Response line: 28

Prompt line: And ACCGUGGCUUUCGAUUGUUACU [hsa-miR-132-5p] ?
Response line: -1.09

Prompt line: Then CUUCUGCCUGCAUUCUACUCCCAG [hsa-miR-6738-3p] ?
Response line: 12.5

Prompt line: # repeat for UAGCACCAUUUGAAAUCGGUUA [hsa-miR-29c-3p]
Response line: -21

Prompt line: Input UGAAGCUCUGACAUUCCUGCAG [hsa-miR-6806-3p]
Response line: 15.3

Prompt line: Same question for CUAUUAAGGACAUUUGUGAUUC [hsa-miR-4477a] please.
Response line: -0.508

Prompt line: Here is the next sequence: AGACACUAUACGAGUCAUAU [hsa-miR-3117-5p]
Response line: 0.975

Prompt line: One more sequence: UUCUGCCUCUGUCCAGGUCCUU [hsa-miR-5001-3p]
Response line: 19.3

Prompt line: Now consider UGAGGGACCCAGGACAGGAGA [hsa-miR-6875-5p] .
Response line: 13.7

---

test system: MCF10A; experiment: 5+ nucleoli phenotype percent effect (relative to siNT 0% and siKIF11 100%); higher = more cells with five or more nucleoli; settings: 20 nM; 72 h
observation_type: 5+ nucleoli phenotype percent effect (%)
Form entry: value (%) — number only.

UACCCUGUAGAACCGAAUUUGUG [hsa-miR-10b-5p]; -26.1
GCUGAACUGGGCUGAGCUGGGC [hsa-miR-4539]; -5.15
AAAAGUAACUAUGGUUUUUGCC [hsa-miR-548bb-5p]; 30.8
GGGGUAUUGUUUCCGCUGCCAGG [hsa-miR-503-3p]; -25.1
GGUAGUGAGUUAUCAGCUAC [hsa-miR-6073]; 18.3

Prompt line: So what does the record say about 5+ nucleoli phenotype percent effect for UGACUUCUACCUCUUCCAAAG [hsa-miR-6505-3p] ?
Response line: -48

Prompt line: GAGUUCUACAGUCAGAC [hsa-miR-3168] ?
Response line: -12.9

Prompt line: Also need CACUGCAUUCCUGCUUGGCCCAG [hsa-miR-6807-3p] , thanks.
Response line: 6.87

Prompt line: And the next one, UGGUCGACCAGUUGGAAAGUAAU [hsa-miR-412-5p] ?
Response line: -1.85

Prompt line: Another sequence: UCUGAAAGAGCAGUUGGUGUU [hsa-miR-4766-5p]
Response line: 2.75

Prompt line: Next sequence up: UAUGUCUGCUGACCAUCACCUU [hsa-miR-654-3p]
Response line: -34.7

Prompt line: What do you have for GCAGUCCAUGGGCAUAUACAC [hsa-miR-455-3p] ?
Response line: 26.8

---

tested on: MCF10A; experiment: percent viability (nuclei count relative to siNT); higher = more viable cells; conditions: 20 nM; 72 h
observation_type: percent viability

# count of solved cases: 8
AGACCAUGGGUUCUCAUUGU [hsa-miR-591]; 84.8%
UAGGUAGAGUGUGAGGAGGAGGUC [hsa-miR-6831-5p]; 53.8%
CUGCAAAGGGAAGCCCUUUC [hsa-miR-527]; 32.8%
CUGGGAGGUGUGAUAUUGUGGU [hsa-miR-3689c]; 9.66%
GUCCUCCAGGCCAUGAGCUGCGG [hsa-miR-4691-5p]; 89.2%
GGGAGGUGUGAUCUCACACUCG [hsa-miR-3689d]; 9.66%
UCUUACUCCCUCAGGCACUG [hsa-miR-550b-3p]; 31%
GGGCUAGGGCCUGCUGCCCCC [hsa-miR-6069]; 54.3%

Prompt line: // query percent viability value for entry CCAGACUGUGGCUGACCAGAGG [hsa-miR-4494]
Response line: 96.4%

Prompt line: Then this sequence: CUCCCACUUCCAGAUCUUUCU [hsa-miR-3156-3p]
Response line: 34.1%

Prompt line: Entry CAGGGAACAGCUGGGUGAGCUGCU [hsa-miR-6750-5p] please
Response line: 60.6%

Prompt line: Next sequence up: CGACCUCGGCGACCCCUCACU [hsa-miR-6790-3p]
Response line: 45.6%

---

Reported percent viability values for the following sequences.
tested on: MCF10A; experiment: percent viability (nuclei count relative to siNT); higher = more viable cells; conditions: 20 nM; 72 h

CACUUAGCAGGUUGUAUUAUAU [hsa-miR-374c-3p]; 50.7%
UGAGGGAGUUGGGUGUAUA [hsa-miR-6129]; 24.3%
UCCAGCUCGGUGGCAC [hsa-miR-4267]; 34.5%
AGUGGGAGGACAGGAGGCAGGU [hsa-miR-6778-5p]; 26.7%
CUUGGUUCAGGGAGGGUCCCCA [hsa-miR-659-3p]; 34.6%

Prompt line: Record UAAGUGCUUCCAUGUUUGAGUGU [hsa-miR-302d-3p] : what is its percent viability with MCF10A?
Response line: 68%

Prompt line: Input UUGGCCACCACACCUACCCCUU [hsa-miR-4701-5p]
Response line: 35.9%

Prompt line: Another sequence to look at: ACAGGCAGGAUUGGGGAA [hsa-miR-4514]
Response line: 18.4%

Prompt line: Okay, and AGGGUGUGUGUGUUUUU [hsa-miR-4455] ?
Response line: 22.4%

Prompt line: # iterate: CUGCAGCCACUUGGGGAACUGGU [hsa-miR-7156-3p]
Response line: 57.4%

Prompt line: Consider next the sequence UGGUGGUUUACAAAGUAAUUCA [hsa-miR-876-3p] in the same way.
Response line: 10.9%

---

test system: MCF10A; test: one-nucleolus phenotype percent effect (relative to siNT 0% and siNOL11 100%); higher = more cells with one nucleolus (ribosome biogenesis inhibition); conditions: 20 nM; 72 h
Assign class by one-nucleolus phenotype percent effect: not lower than 10% means yes (1); lower than 10% means no (0).

Prompt line: Assess whether reported one-nucleolus phenotype percent effect for CAGGUCGUCUUGCAGGGCUUCU [hsa-miR-431-3p] sits at 10% or higher.
Response line: yes (1)

Prompt line: One more sequence: CGGCUGGAGGUGUGAGGA [hsa-miR-3652]
Response line: yes (1)

Prompt line: Then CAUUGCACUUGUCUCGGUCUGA [hsa-miR-25-3p] ?
Response line: no (0)

Prompt line: Same lookup for GGCUCCUUGGUCUAGGGGUA [hsa-miR-4448] , please.
Response line: no (0)

Prompt line: Entry AUCCUAGUCACGGCACCA [hsa-miR-7975] please
Response line: yes (1)
